target: GluA2 (Rattus norvegicus); test: Radioligand binding at recombinant homomeric GluA2
Sequence (P19491 22-883): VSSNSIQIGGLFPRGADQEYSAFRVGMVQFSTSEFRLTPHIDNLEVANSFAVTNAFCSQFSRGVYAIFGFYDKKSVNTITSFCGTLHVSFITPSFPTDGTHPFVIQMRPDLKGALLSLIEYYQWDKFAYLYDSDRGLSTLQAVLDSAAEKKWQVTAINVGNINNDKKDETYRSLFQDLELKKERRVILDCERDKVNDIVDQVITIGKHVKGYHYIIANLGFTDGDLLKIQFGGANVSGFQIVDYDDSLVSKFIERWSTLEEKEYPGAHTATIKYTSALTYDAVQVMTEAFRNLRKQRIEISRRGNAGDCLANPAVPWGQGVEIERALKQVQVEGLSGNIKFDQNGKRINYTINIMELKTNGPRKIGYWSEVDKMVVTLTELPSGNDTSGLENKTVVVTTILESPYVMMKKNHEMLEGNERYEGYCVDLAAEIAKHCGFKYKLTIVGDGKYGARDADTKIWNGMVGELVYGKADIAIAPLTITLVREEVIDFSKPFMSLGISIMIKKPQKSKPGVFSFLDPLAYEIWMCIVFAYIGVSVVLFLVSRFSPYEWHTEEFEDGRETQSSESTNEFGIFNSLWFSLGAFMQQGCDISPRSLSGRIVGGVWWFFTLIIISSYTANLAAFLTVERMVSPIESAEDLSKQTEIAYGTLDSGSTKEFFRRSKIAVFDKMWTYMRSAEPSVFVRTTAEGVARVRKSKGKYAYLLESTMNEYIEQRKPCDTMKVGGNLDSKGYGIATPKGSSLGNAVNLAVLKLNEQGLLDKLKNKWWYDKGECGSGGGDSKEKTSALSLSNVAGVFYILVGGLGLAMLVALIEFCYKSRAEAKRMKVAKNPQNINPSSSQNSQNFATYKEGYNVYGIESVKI
MEASUREMENT TYPE: Ki (µM)

> print(dat)
                              smiles.record  measurement.type  uom  recorded.number
1  Cl.O=C(O)c1cc(-c2cncnc2)cc([C@H]2CCN[C@@H]2C(=O)O)c1                Ki   µM             82.9
2  Cl.O=C(O)c1cc(-c2ccncc2)cc([C@H]2CCN[C@@H]2C(=O)O)c1                Ki   µM               33
3  Cl.O=C(O)c1cc(-c2ccccn2)cc([C@H]2CCN[C@@H]2C(=O)O)c1                Ki   µM               55
4  Cl.O=C(O)c1cc(-c2cccnc2)cc([C@H]2CCN[C@@H]2C(=O)O)c1                Ki   µM               40
5  Cl.O=C(O)c1cc(-c2cnc(O)nc2)cc([C@H]2CCN[C@@H]2C(=O)O)c1                Ki   µM               56

###

molecular target: native NMDA receptors; assay: Radioligand binding at native NMDA receptors; conditions: read-out: NMDA Ki, native iGluRs (synaptosomes); rat synaptosomes, [3H]CGP-39653
Binning rule for recorded Ki: range A = under 2 µM, range B = from 2 µM up to 8 µM, range C = 8 µM and over

> print(dat)
                                    molecule          tested.system      cat
 1  O=C(O)c1cccc([C@H]2[C@H](CCNCc3ccccc3)CN[C@@H]2C(=O)O)c1 [9c]  native NMDA receptors  range C
 2  Cl.O=C(O)c1cc([C@H]2CCN[C@@H]2C(=O)O)cc(C(=O)O)c1Cl [6b]  native NMDA receptors  range A
 3  Cl.O=C(O)c1cc(-c2ccncc2)cc([C@H]2CCN[C@@H]2C(=O)O)c1 [5g]  native NMDA receptors  range A
 4  O=C(O)C(F)(F)F.O=C(O)c1ccc([C@H]2CCN[C@@H]2C(=O)O)cc1 [compound 7]  native NMDA receptors  range C
 5  Cl.O=C(O)c1cc(-c2cncnc2)cc([C@H]2CCN[C@@H]2C(=O)O)c1 [5h]  native NMDA receptors  range C
 6  O=C(O)c1cccc([C@H]2[C@H](CCO)CN[C@@H]2C(=O)O)c1 [9d]  native NMDA receptors  range C
 7  Cl.Cl.Nc1cc(C(=O)O)cc([C@H]2CCN[C@@H]2C(=O)O)c1 (racemic) [(±)-5j]  native NMDA receptors  range C
 8  Cl.O=C(O)c1cc(NS(=O)(=O)c2ccccn2)cc([C@H]2CCN[C@@H]2C(=O)O)c1 (racemic) [(±)-5l]  native NMDA receptors  range C
 9  Cl.O=C(O)C[C@@H]1CN[C@H](C(=O)O)[C@H]1c1cccc(C(=O)O)c1 [9e]  native NMDA receptors  range C
10  O=C(O)c1ccc([C@H]2CCN[C@@H]2C(=O)O)cc1C(=O)O [4h]  native NMDA receptors  range A
11  Cl.O=C(O)c1cc(-c2ccccn2)cc([C@H]2CCN[C@@H]2C(=O)O)c1 [5e]  native NMDA receptors  range B
12  Cl.O=C(O)c1cc(-c2cccnc2)cc([C@H]2CCN[C@@H]2C(=O)O)c1 [5f]  native NMDA receptors  range B
13  Cl.O=C(O)c1cc(-c2cnn[nH]2)cc([C@H]2CCN[C@@H]2C(=O)O)c1 [5d]  native NMDA receptors  range A
14  Cc1ccc(S(=O)(=O)Nc2cc(C(=O)O)cc([C@H]3CCN[C@@H]3C(=O)O)c2)cc1.Cl (racemic) [(±)-5k]  native NMDA receptors  range C
15  Cl.O=C(O)c1cc(C(=O)O)cc([C@H]2CCN[C@@H]2C(=O)O)c1 [5c]  native NMDA receptors  range A
16  Cl.O=C(O)c1cc(NC(=O)c2ccccc2)cc([C@H]2CCN[C@@H]2C(=O)O)c1 (racemic) [(±)-5m]  native NMDA receptors  range B
17  CNCC[C@@H]1CN[C@H](C(=O)O)[C@H]1c1cccc(C(=O)O)c1 [9b]  native NMDA receptors  range C
18  Cl.O=C(O)c1cc(-c2cnc(O)nc2)cc([C@H]2CCN[C@@H]2C(=O)O)c1 [5i]  native NMDA receptors  range B
19  Cl.O=C(O)c1cc(Br)cc([C@H]2CCN[C@@H]2C(=O)O)c1 [5b]  native NMDA receptors  range B

###

target: GluN1/GluN2A NMDA receptor (Rattus norvegicus, UniProt P35439+Q00959); assay: Two-electrode voltage-clamp recordings, Xenopus oocytes expressing GluN1/GluN2A
Sequence (Q00959 23-1464, other chains not shown): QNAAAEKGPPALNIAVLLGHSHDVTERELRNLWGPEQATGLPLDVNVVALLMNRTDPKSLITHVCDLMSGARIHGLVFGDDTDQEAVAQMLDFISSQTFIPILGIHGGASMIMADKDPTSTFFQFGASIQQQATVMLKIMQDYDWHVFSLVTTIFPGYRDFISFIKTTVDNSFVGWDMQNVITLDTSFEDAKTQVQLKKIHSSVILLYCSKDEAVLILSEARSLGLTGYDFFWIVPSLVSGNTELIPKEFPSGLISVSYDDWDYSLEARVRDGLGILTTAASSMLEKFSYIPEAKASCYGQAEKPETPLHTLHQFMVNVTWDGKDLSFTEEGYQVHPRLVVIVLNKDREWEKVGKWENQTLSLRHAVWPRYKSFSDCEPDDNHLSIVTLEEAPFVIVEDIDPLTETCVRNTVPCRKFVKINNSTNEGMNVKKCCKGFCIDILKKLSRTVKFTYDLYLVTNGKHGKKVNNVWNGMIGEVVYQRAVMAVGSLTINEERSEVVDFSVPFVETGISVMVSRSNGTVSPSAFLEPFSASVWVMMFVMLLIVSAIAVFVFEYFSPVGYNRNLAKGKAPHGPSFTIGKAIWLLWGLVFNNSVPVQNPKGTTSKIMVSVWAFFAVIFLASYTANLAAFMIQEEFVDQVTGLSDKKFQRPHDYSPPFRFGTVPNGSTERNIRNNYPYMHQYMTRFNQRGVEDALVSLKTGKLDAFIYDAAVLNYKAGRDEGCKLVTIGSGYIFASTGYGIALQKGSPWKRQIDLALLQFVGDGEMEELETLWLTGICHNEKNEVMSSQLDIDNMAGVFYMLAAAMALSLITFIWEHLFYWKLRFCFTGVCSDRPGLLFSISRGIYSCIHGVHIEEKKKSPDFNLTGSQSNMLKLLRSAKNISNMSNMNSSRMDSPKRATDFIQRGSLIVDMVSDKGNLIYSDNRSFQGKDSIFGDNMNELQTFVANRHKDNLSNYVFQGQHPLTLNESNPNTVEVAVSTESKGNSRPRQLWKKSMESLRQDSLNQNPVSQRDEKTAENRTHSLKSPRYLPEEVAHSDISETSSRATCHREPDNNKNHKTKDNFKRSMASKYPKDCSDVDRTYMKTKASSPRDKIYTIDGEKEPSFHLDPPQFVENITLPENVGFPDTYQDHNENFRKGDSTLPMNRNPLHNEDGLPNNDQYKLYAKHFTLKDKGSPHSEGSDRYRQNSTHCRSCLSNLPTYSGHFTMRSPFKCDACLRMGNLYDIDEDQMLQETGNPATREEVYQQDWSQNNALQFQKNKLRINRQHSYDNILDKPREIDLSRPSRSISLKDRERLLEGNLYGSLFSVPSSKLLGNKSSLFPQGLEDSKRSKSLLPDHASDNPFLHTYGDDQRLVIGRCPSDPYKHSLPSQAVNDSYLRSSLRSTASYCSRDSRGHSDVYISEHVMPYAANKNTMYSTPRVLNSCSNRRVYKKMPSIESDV
Recorded log10 IC50, one value per entry.
MEASUREMENT TYPE: log10 IC50 (log10 of the value in nM)

> print(dat)
                              smiles.record  measurement.type  recorded.number
1  Cl.O=C(O)c1cc(C(=O)O)cc([C@H]2CCN[C@@H]2C(=O)O)c1        log10 IC50             2.80
2  Cl.O=C(O)c1cc([C@H]2CCN[C@@H]2C(=O)O)cc(C(=O)O)c1Cl        log10 IC50             2.30
3  Cl.O=C(O)c1cccc([C@H]2CCN[C@@H]2C(=O)O)c1        log10 IC50             4.07
4  O=C(O)C(F)(F)F.O=C(O)c1ccc([C@H]2CCN[C@@H]2C(=O)O)cc1        log10 IC50             4.65
5  Cl.O=C(O)c1cc(-c2cnn[nH]2)cc([C@H]2CCN[C@@H]2C(=O)O)c1        log10 IC50             3.13
6  O=C(O)c1ccc([C@H]2CCN[C@@H]2C(=O)O)cc1C(=O)O        log10 IC50             2.88

###

target: GluK3 (Rattus norvegicus); assay: Radioligand binding at recombinant homomeric GluK3; settings: read-out: GluK3 Ki, cloned homomeric iGluRs; [3H]KA; mean ± SEM
pKi: −log10 of the molar value.
MEASUREMENT TYPE: pKi

> print(dat)
                                   compound  recorded.number
1  Cc1ccc(S(=O)(=O)Nc2cc(C(=O)O)cc([C@H]3CCN[C@@H]3C(=O)O)c2)cc1.Cl (racemic) [(±)-5k]             4.96
2  Cl.O=C(O)c1cc(NC(=O)c2ccccc2)cc([C@H]2CCN[C@@H]2C(=O)O)c1 (racemic) [(±)-5m]             5.40
3  Cl.O=C(O)c1cc(NS(=O)(=O)c2ccccn2)cc([C@H]2CCN[C@@H]2C(=O)O)c1 (racemic) [(±)-5l]             4.85
4  Cl.Cl.Nc1cc(C(=O)O)cc([C@H]2CCN[C@@H]2C(=O)O)c1 (racemic) [(±)-5j]             4.71

###

target: GluK1 (Rattus norvegicus); experiment: Radioligand binding at recombinant homomeric GluK1
Sequence (P22756 31-920 isoform P22756-4 limits assumed): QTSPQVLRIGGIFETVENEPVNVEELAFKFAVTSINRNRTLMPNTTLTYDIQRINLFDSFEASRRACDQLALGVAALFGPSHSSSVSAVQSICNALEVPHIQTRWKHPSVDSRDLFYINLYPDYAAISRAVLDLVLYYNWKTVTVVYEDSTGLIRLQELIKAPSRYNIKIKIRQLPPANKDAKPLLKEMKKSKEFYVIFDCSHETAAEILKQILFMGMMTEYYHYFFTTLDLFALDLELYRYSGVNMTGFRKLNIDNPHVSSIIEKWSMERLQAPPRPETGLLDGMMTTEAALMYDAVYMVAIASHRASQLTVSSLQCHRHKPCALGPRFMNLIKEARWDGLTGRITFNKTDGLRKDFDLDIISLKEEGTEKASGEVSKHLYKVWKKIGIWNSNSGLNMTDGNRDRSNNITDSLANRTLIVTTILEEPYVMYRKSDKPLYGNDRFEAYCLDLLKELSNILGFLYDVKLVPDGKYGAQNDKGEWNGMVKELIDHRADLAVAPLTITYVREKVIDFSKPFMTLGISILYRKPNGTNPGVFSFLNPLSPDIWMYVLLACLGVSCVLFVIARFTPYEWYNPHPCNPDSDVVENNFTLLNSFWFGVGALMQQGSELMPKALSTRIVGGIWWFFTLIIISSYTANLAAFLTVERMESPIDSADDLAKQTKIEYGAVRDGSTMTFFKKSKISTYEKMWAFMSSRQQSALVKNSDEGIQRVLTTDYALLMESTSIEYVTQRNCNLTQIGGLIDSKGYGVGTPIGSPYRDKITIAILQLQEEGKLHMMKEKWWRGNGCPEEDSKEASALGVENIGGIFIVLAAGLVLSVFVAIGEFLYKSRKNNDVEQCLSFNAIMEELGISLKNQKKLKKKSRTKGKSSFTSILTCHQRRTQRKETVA
pKi: −log10 of the molar value.
MEASUREMENT TYPE: pKi

> print(dat)
                                   molecule  result
1  Cl.O=C(O)c1cc(-c2ccncc2)cc([C@H]2CCN[C@@H]2C(=O)O)c1 [5g]    4.66
2  Cl.O=C(O)c1cc([C@H]2CCN[C@@H]2C(=O)O)cc(Br)c1Cl [6a]  ≤ 4.00
3  Cl.O=C(O)c1cc(-c2cnn[nH]2)cc([C@H]2CCN[C@@H]2C(=O)O)c1 [5d]  < 4.30
4  O=C(O)c1ccc([C@H]2CCN[C@@H]2C(=O)O)cc1C(=O)O [4h]  < 4.00
5  CNCC[C@@H]1CN[C@H](C(=O)O)[C@H]1c1cccc(C(=O)O)c1 [9b]   ~5.00
6  O=C(O)c1cccc([C@H]2[C@H](CCO)CN[C@@H]2C(=O)O)c1 [9d]  < 5.00
7  O=C(O)C(F)(F)F.O=C(O)c1ccc([C@H]2CCN[C@@H]2C(=O)O)cc1 [compound 7]  < 4.00

###

target: GluN1/GluN2B NMDA receptor (Rattus norvegicus, UniProt P35439+Q00960); experiment: Two-electrode voltage-clamp recordings, Xenopus oocytes expressing GluN1/GluN2B; format: cell-based
Sequence (Q00960 27-1482, other chains not shown): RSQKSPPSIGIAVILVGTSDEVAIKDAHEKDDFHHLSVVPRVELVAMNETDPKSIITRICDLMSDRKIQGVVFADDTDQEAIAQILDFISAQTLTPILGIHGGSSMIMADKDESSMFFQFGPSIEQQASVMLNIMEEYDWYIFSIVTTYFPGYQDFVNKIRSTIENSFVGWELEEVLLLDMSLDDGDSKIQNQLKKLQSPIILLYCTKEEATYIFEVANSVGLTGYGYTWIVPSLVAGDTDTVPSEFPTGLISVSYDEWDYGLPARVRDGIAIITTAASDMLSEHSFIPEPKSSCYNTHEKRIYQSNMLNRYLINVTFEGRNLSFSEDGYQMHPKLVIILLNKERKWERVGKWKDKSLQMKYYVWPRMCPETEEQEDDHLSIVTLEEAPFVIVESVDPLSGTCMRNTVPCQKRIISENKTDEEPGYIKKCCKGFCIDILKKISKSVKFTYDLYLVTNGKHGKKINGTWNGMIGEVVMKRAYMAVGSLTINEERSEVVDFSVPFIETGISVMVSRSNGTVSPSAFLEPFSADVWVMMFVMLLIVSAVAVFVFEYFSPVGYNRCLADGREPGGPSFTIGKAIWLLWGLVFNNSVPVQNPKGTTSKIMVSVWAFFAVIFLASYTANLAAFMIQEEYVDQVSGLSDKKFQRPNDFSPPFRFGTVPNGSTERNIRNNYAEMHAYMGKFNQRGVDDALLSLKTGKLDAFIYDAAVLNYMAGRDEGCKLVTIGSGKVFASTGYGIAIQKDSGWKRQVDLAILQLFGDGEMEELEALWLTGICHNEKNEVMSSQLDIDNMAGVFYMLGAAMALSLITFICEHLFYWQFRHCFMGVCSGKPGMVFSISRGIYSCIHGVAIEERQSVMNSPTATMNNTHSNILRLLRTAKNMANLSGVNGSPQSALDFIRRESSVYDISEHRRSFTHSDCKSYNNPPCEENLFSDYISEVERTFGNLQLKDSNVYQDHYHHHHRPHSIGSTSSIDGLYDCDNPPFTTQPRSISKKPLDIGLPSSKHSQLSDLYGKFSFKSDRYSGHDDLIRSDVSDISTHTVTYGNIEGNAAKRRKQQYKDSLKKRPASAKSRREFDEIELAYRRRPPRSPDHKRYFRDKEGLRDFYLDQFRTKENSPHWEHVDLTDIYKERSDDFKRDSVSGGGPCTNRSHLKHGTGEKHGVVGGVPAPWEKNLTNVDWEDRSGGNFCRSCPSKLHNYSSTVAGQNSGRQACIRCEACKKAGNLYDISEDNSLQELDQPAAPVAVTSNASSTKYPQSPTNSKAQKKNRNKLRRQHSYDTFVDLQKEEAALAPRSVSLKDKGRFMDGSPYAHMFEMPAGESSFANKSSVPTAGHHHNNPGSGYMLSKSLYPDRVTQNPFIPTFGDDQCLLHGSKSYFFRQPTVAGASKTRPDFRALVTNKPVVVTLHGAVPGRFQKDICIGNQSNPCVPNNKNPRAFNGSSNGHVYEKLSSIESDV
pIC50: −log10 of the molar value.
Recorded pIC50, one value per entry.
MEASUREMENT TYPE: pIC50

> print(dat)
                                   molecule  recorded.number
1  Cl.O=C(O)c1cc(-c2cnn[nH]2)cc([C@H]2CCN[C@@H]2C(=O)O)c1 [5d]             5.45
2  Cl.O=C(O)c1cc(C(=O)O)cc([C@H]2CCN[C@@H]2C(=O)O)c1 [5c]             5.36
3  O=C(O)c1ccc([C@H]2CCN[C@@H]2C(=O)O)cc1C(=O)O [4h]             5.37
4  Cl.O=C(O)c1cc([C@H]2CCN[C@@H]2C(=O)O)cc(C(=O)O)c1Cl [6b]             6.12
5  O=C(O)C(F)(F)F.O=C(O)c1ccc([C@H]2CCN[C@@H]2C(=O)O)cc1 [compound 7]             3.78
6  Cl.O=C(O)c1cccc([C@H]2CCN[C@@H]2C(=O)O)c1 [4a]             4.46
